Each item that follows carries a reported IC50.
target under test: human PR-B binding to flPRE (Homo sapiens, UniProt P06401)
Sequence (P06401 1-933): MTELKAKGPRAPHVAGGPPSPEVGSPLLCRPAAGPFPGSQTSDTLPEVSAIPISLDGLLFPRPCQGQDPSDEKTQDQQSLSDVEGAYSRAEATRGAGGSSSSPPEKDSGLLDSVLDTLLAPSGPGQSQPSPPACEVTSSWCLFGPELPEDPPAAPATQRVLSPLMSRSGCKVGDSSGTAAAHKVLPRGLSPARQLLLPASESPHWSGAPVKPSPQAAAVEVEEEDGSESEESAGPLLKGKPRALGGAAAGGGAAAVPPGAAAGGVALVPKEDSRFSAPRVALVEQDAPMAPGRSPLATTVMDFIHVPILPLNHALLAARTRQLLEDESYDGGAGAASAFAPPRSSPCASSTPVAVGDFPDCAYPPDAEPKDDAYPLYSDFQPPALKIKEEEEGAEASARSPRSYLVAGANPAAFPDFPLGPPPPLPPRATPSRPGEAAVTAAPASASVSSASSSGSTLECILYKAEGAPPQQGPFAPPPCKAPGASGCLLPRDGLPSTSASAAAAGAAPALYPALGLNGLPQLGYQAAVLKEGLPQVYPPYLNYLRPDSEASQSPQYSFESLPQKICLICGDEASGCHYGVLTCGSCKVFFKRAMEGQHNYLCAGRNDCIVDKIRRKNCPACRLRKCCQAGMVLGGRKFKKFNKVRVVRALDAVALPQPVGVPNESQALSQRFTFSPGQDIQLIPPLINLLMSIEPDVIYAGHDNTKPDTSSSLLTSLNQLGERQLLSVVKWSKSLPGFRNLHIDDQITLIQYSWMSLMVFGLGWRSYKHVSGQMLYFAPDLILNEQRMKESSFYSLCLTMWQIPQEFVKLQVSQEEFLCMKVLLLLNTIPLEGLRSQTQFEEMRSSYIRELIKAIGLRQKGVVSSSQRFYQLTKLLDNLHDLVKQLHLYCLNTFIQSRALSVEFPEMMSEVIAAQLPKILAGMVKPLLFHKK

{"compound": "O=C(Nc1cc[c]([Sb](=[O])([OH])[OH])cc1)c1ccccc1", "target under test": "human PR-B binding to flPRE (Homo sapiens, UniProt P06401)", "reported endpoint": "IC50", "value measured": "> 10 µM"}
{"compound": "CCCCCCCCCC(=O)OC", "target under test": "human PR-B binding to flPRE (Homo sapiens, UniProt P06401)", "reported endpoint": "IC50", "value measured": "7 µM"}
{"compound": "N#CC(C#N)=CNCCN1CCN(C=C(C#N)C#N)CC1", "target under test": "human PR-B binding to flPRE (Homo sapiens, UniProt P06401)", "reported endpoint": "IC50", "value measured": "> 10 µM"}
{"compound": "Cc1ccccc1NCC(C)O (stereo not drawn)", "target under test": "human PR-B binding to flPRE (Homo sapiens, UniProt P06401)", "reported endpoint": "IC50", "value measured": "> 10 µM"}
{"compound": "O=[N+]([O-])/C=C/c1ccco1", "target under test": "human PR-B binding to flPRE (Homo sapiens, UniProt P06401)", "reported endpoint": "IC50", "value measured": "7.5 µM"}
{"compound": "CCN(CC)CCOC(=O)c1cc(Br)cc(-c2ccccc2)c1O", "target under test": "human PR-B binding to flPRE (Homo sapiens, UniProt P06401)", "reported endpoint": "IC50", "value measured": "> 10 µM"}
{"compound": "O=C1NC(=S)NC(=O)C1=Cc1cccc2cc3ccccc3cc12", "target under test": "human PR-B binding to flPRE (Homo sapiens, UniProt P06401)", "reported endpoint": "IC50", "value measured": "> 10 µM"}
{"compound": "C=C(CC(=O)O)C(=O)O.C=CC(=O)O", "target under test": "human PR-B binding to flPRE (Homo sapiens, UniProt P06401)", "reported endpoint": "IC50", "value measured": "0.4 µM"}

Field: next compound
Fill in: IC50 of `Nc1ccc(S(=O)(=O)c2ccc(NCN3C(=O)NC(=O)C(=O)C3=O)cc2)cc1` is ___
> 10 µM
